test target: cortisol synthase (CYP11B1) (Macaca fascicularis)
assay remarks: Inhibition of cortisol synthesis, cynomolgus adrenal mitochondria, 11-deoxycortisol as substrate
Assay type: biochemical, cynomolgus monkey
recorded conditions: cynomolgus adrenal mitochondria, 150 units of CYP11B1, 11-deoxycortisol as substrate; read-out: Cortisol Inhibition IC50
Just a reminder that ties go to n: only IC50 strictly below 30 µM counts as y.

1) CC1(C)Cc2ncn(-c3ccc(F)cc3)c2C(=O)O1 [Compound 14] : y
2) CC1(C)Cc2ncn(-c3ccc(C#N)cc3Cl)c2C(=O)O1 [Compound 18] : y
3) CC1(C)Cc2ncn(-c3cccc(F)c3Cl)c2C(=O)O1 [Compound 7] : y
4) CC1(CO)Cc2ncn(-c3cccc(F)c3Cl)c2C(=O)O1 (single isomer, unassigned) [Compound 34A] : n
5) CC1Cc2ncn(-c3ccc(C#N)cc3)c2C(=O)O1 (single isomer, unassigned) [Compound 16A] : y
6) Cc1cc(-n2cnc3c2C(=O)OC(C)(C)C3)ccc1C#N [Compound 11] : y
7) CC1(CO)Cc2ncn(-c3ccc(C#N)cc3)c2C(=O)O1 (stereo not drawn) [Compound 37] : n
8) CC1(C)Cc2ncn(-c3ccc(F)c(F)c3)c2C(=O)O1 [Compound 2] : y
9) CC1(C)Cc2ncn(-c3ccccc3)c2C(=O)O1 [Compound 17] : n

Sourced from patent US9334285B2
